- System: MS2 coat protein
- ASSAY_INFO: apparent KD of MS2 coat protein; designed switch direction (-1 OFF switch, 1 ON switch): -1; higher = weaker reporter binding
- STUDY_CONDITIONS: input ligand: microRNA oligo, concentration not stated
QUANTITY_NAME: apparent KD of MS2 coat protein (nM)

• CUAGCUAUUGUAGGAUAUCGAUGUGUUUCACAUCGAGAAGGACAUGAGGAUCACCCAUGUGAAAGGAUCGUGAGAUCCAGCUAG [JL ENG1 3.76] (Eterna round: R96, puzzle: Exclusion NG 1) = 18.7
• UUCAUGUGAGGAUAUAGUACUUCUUCUAUUAUUAUUGAGUACUAGAAGGCACAUGAGGAUCACCCAUGUAGUAC [Ex4 - 3 - 43] (Eterna round: R96, puzzle: Exclusion 4) = 22.1
• GGUCAGAUGGUAGGAUAUCCAUAUCGAGUGACUCUUUCAUAACAUGAGGAUCACCCAUGUCGGUGGGAGAAGGGCCGUACGGCG [salish99_ExNG02_R04_016] (Eterna round: R96, puzzle: Exclusion NG 2) = 23.3
• GGUUAUUGCAAGGAUAUGCUUUUUUUUGAAAUUGCAGAAGGUGCAACAUGAGGAUCACCCAUGUUGGAUGGGUU [JR_E6_Sub018] (Eterna round: R96, puzzle: Exclusion 6) = 161
• CAGUACUGAGGAUAUACAUGAGGAUCACCCAUGUGUUCCAGCUAGGAAACUAGCAGAAGUAGAAGGCAGUACUG [salish99_ex3_r3_067] (Eterna round: R96, puzzle: Exclusion 3) = 17

Value source: the supplement of paper PMC9170038
